- System: T-47D breast
- experiment.description: NCI tumour cell line growth inhibition, 48 h
experimental.readout: TGI (µM)
// note: answer is a bare numeric in µM

Cc1nc2ccc(F)cc2c2c1CCN2c1ccccc1 = 85.8
NCc1ccc(O)c(O)c1O = 71.6
CSC1=C(C(=O)N(COCC[Si](C)(C)C)c2ccccc2Br)CCC(C(C)(C)C)C1 (stereo unspecified) = 34.3

Notebook: N#Cc1c(N)n(C2OC(CO)C(O)C2O)c2ncnc(N)c12 (stereo unspecified) , TGI read as 0.221

# TGI of Cc1cc(N2CCCCC2)nc(NCc2cc(Nc3ccnc4cc(Cl)ccc34)ccc2F)n1 = 2.99

Form: compound = OCCNC(=S)Nc1ccc(-c2nc(N3C[C@H]4CC[C@@H](C3)O4)c3cccn3n2)cc1 ; TGI = 0.0389

Cited source for all entries: PubChem BioAssay (NCI)
